Data provenance: paper PMC10254045

- tested target: β-amyloid peptide 1-42 (Aβ1-42) (Homo sapiens, UniProt P05067)
- Construct: the pathological form of β-amyloid peptide 1-42 (Sigma Aldrich); purchased Sigma Aldrich
- Sequence (P05067 672-713 limits assumed): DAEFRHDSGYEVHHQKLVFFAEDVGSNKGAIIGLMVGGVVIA
- run description: Thioflavin T fluorescent analysis of Aβ1-42 aggregation
- Type: biochemical
- conditions: 48 h, compounds 100 µM, Thioflavin T 10 µM, 48 h registration; read-out: prevention of the aggregation of Aβ1-42
readout name: inhibition at 100 µM (%)

molecule=C=C(C)[C@@H]1CC=C(CNC(=O)CCCCCCC(=O)NO)CC1 readout_name="inhibition at 100 µM" qualifying_sign=≤ result=40
molecule=C=C(C)[C@@H]1CC=C(CNC(=O)CCCCCCCC(=O)NO)CC1 readout_name="inhibition at 100 µM" qualifying_sign=≤ result=40
molecule="CC(C)c1ccc(CNC(=O)/C=C/c2ccc(C(=O)NO)cc2)cc1 [Compound 35b]" readout_name="inhibition at 100 µM" qualifying_sign== result=59.9
molecule="CC1(C)[C@H]2CC[C@@H](CNC(=O)/C=C/c3ccc(C(=O)NO)cc3)[C@@H]1C2 [Compound 35c]" readout_name="inhibition at 100 µM" qualifying_sign=≤ result=40
molecule="CC(C)c1ccc(CNC(=O)c2ccc(/C=C/C(=O)NO)cc2)cc1 [Compound 38b]" readout_name="inhibition at 100 µM" qualifying_sign== result=63.9
molecule="CC1(C)[C@H]2CC[C@@H](CNC(=O)c3ccc(/C=C/C(=O)NO)cc3)[C@@H]1C2 [Compound 38c]" readout_name="inhibition at 100 µM" qualifying_sign=≤ result=40
molecule="C=C(C)[C@@H]1CC=C(CNC(=O)/C=C/c2ccc(C(=O)NO)cc2)CC1 [Compound 35a]" readout_name="inhibition at 100 µM" qualifying_sign== result=73.9
molecule="C=C(C)[C@@H]1CC=C(CNC(=O)c2ccc(/C=C/C(=O)NO)cc2)CC1 [Compound 38a]" readout_name="inhibition at 100 µM" qualifying_sign== result=60.1

* * *

This listing pairs compounds with measured log10(IC50).
- tested target: HDAC6 (Homo sapiens, UniProt Q9UBN7)
- Construct: purchased Enzo Life Sciences
- Sequence (Q9UBN7 whole entry): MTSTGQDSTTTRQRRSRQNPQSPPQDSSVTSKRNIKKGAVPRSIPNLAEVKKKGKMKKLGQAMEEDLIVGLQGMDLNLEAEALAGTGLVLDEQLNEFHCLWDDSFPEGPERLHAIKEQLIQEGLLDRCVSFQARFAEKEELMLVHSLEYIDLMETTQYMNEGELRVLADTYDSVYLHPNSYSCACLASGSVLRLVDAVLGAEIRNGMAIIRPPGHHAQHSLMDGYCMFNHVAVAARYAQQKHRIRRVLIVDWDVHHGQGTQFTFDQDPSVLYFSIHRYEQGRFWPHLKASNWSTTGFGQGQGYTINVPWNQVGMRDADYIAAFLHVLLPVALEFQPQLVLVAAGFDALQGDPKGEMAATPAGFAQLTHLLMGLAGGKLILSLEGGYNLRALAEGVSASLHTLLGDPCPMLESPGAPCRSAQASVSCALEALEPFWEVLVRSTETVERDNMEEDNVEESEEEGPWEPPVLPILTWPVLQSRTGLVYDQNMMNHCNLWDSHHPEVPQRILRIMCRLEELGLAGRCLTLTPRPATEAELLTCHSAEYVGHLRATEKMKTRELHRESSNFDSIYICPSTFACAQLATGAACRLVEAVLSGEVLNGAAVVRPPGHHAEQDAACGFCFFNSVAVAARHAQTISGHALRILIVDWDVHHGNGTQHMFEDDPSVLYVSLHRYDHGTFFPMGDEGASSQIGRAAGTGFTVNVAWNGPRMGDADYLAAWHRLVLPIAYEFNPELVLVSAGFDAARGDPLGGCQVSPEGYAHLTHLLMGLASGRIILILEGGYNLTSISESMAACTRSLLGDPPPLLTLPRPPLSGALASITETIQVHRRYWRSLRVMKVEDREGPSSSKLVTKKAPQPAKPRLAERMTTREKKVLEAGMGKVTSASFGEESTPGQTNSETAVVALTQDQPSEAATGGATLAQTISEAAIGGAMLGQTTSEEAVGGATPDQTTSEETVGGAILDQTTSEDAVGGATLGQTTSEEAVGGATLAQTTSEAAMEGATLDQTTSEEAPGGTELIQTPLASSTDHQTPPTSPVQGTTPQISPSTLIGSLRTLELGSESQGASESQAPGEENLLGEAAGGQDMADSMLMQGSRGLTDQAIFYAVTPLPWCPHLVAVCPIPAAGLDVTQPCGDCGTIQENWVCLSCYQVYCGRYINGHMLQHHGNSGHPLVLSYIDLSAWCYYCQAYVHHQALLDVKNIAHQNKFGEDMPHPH
- run description: Fluorimetric measurement of HDAC6 activity (FLUOR DE LYS kit)
- Format: biochemical
- conditions: Table 1; read-out: HDAC6-Inhibitory Effect, IC50
readout name: log10(IC50) (log10 of the value in µM)

compound="CC(C)c1ccc(CNC(=O)/C=C/c2ccc(C(=O)NO)cc2)cc1 [Compound 35b]" readout_name=log10(IC50) result=0.92
compound="CC(C)c1ccc(CNC(=O)c2ccc(/C=C/C(=O)NO)cc2)cc1 [Compound 38b]" readout_name=log10(IC50) result=0.68
compound="C=C(C)[C@@H]1CC=C(CNC(=O)/C=C/c2ccc(C(=O)NO)cc2)CC1 [Compound 35a]" readout_name=log10(IC50) result=0.59
compound=C=C(C)[C@@H]1CC=C(CNC(=O)CCCCCCC(=O)NO)CC1 readout_name=log10(IC50) result=-0.25
compound="CC1(C)[C@H]2CC[C@@H](CNC(=O)/C=C/c3ccc(C(=O)NO)cc3)[C@@H]1C2 [Compound 35c]" readout_name=log10(IC50) result=0.84
compound=C=C(C)[C@@H]1CC=C(C(=O)NO)CC1 readout_name=log10(IC50) result=1.94
compound=C=C(C)[C@@H]1CC=C(CNC(=O)CCCCCCCC(=O)NO)CC1 readout_name=log10(IC50) result=-0.13

* * *

readout name: melting point

compound="C=C(C)[C@@H]1CC=C(CNC(=O)/C=C/c2ccc(C(=O)NO)cc2)CC1 [Compound 35a]" readout_name="melting point" result="179.9 °C"
compound="CC(C)c1ccc(CNC(=O)c2ccc(/C=C/C(=O)NO)cc2)cc1 [Compound 38b]" readout_name="melting point" result="160.3 to 164.9 °C"
compound="CC(C)c1ccc(CNC(=O)/C=C/c2ccc(C(=O)NO)cc2)cc1 [Compound 35b]" readout_name="melting point" result="187.4 to 189.7 °C"
compound="C=C(C)[C@@H]1CC=C(CNC(=O)c2ccc(/C=C/C(=O)NO)cc2)CC1 [Compound 38a]" readout_name="melting point" result="167.2 to 167.6 °C"
compound=C=C(C)[C@@H]1CC=C(CNC(=O)CCCCCCC(=O)NO)CC1 readout_name="melting point" result="113.5 to 116 °C"
compound=C=C(C)[C@@H]1CC=C(CNC(=O)CCCCCCCC(=O)NO)CC1 readout_name="melting point" result="110.8 °C"
compound="CC1(C)[C@H]2CC[C@@H](CNC(=O)/C=C/c3ccc(C(=O)NO)cc3)[C@@H]1C2 [Compound 35c]" readout_name="melting point" result="139.5 to 141.4 °C"
compound="CC1(C)[C@H]2CC[C@@H](CNC(=O)c3ccc(/C=C/C(=O)NO)cc3)[C@@H]1C2 [Compound 38c]" readout_name="melting point" result="108.6 °C"
